System Under Test: Runt-related transcription factor 1 (Homo sapiens) + Core-binding factor subunit beta (Homo sapiens) (UniProt Q01196+Q13951)
Sequence (Q01196 whole entry, looked up, the tested form may be a part): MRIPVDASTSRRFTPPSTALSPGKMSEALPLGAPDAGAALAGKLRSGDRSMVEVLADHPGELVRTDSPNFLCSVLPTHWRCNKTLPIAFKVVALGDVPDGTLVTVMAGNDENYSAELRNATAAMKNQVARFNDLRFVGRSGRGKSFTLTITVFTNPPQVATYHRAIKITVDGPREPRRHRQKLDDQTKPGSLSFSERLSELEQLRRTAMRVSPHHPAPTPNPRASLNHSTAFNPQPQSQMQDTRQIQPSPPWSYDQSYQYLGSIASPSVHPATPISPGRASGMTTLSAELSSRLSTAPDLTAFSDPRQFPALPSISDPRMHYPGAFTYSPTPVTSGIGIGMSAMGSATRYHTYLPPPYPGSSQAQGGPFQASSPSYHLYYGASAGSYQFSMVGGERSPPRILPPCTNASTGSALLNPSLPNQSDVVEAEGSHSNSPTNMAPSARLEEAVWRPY
Sequence (Q13951 whole entry, looked up, the tested form may be a part): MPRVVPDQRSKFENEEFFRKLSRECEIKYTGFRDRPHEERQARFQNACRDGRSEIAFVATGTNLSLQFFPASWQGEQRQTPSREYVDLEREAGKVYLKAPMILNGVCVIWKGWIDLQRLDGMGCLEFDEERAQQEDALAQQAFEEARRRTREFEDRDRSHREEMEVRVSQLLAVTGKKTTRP
Assay Overview: Runt domain/CBFb interaction disruptors – biochemical, TR-FRET (AID 1502)
Condition Description: TR-FRET RUNX1 Runt domain-CBFb binding; at 20 µM
The list shows a part of the results. Activity calls are given as the source filed them. No stated cut-off is given here; in the data, active means inhibition above about 40%; inactive means the rest.
Outcome codes: active, inactive

Compound	Qualitative Label
COc1ccc(C2C(C#N)=C(N)Oc3cc(N)ccc32)cc1OC (centres undefined)	inactive
COCC(C)OC(=O)c1c(N)n(CCCN2CCOCC2)c2nc3ccccc3nc12 (centres undefined)	active
CCOc1cccc(/C=N/N2C(=O)CSC2=S)c1O	active
CCOC(=O)c1cc2c(=O)n3ccccc3nc2n(CC(C)C)c1=NC(=O)c1c(-c2c(F)cccc2Cl)noc1C	inactive
